Reference for the values: patent US20210253679A1

# TARGET OR TEST SYSTEM: T1, rhesus serum albumin (rhesus, UniProt Q28522 17-600)
# T1 construct: also called RhSA
# ASSAY METHOD TEXT: SPR, single cycle kinetics, pH 7.4
pKd: −log10 of the molar value.
Please use YES whenever pKd is not below 7, and NO whenever it is.

| BINDER | LABEL |
| --- | --- |
| H18 sdAb (VHH, also called H18 VHH) VHH: QVQLVESGGGLVQAGGSLRLSCTASGSIESINRMAWYRQAPGQQREFVARISKGGSTNYPDSVKGRFTISRDNAKNTVYLQMNSLKPEDTAVYYCAAGPVWEQFWGQGTQVTVSS | YES |
| M75-H4 (VHH) VHH: QVQLVESGGGLVQPGGSLRLSCAASGRTFDNYVMAWFRQAPGKEREFVASISGSGSITNYANSVKDRFTISRDSSKNALYLQMNSLRAEDTAVYYCAAGSRRTYYREPKFYPSWGQGTLVTVSS | YES |
| Rh46-H3 (VHH) VHH: QVQLVESGGGLVQPGGSLRLSCAASTRTFSSYIMGWFRQAPGKERELVAAISWSGRMTHYADSVKGRFTISRDNSKNTLYLQMNSLRAEDTAVYYCAADRTTAWGAPRSQYDSWGQGTLVTVSS | NO |
| R28 sdAb (VHH, also called R28 VHH) VHH: QVQLVESGGGLVQAGGSLRLSCVASGRTFIAYAMGWFRQAPGKEREFVAAITNFAGGTTYYADSVKGRFTISRDNAKTTVYLQMNSLKPEDTALYYCAADRSAQTMRQVRPVLPYWGQGTQVTVSS | YES |
| Rh34-H1 (VHH) VHH: EVQLVESGGGLVQPGGSLRLSCAASGRTISLYAVGWFRQAPGKGLEFVSAISWTDSSTYYADSVKGRFTISRDNSKNTLYLQMNSLRAEDTAVYYCAADVSIRGLQKYEYDYWGQGTLVTVSS | NO |
| H18-H3 (VHH) VHH: QVQLVESGGGLVQPGGSLRLSCAASGSIESINRMAWYRQAPGKQREFVARISKGGSTNYPDSVKGRFTISRDNSKNTLYLQMNSLRAEDTAVYYCAAGPVWEQFWGQGTLVTVSS | YES |
